- Test system: Abutilon theophrasti (ABUTH), velvetleaf
- Protocol Description: Postemergence herbicide evaluation, growth of Abutilon theophrasti (ABUTH)
- Format: in vivo
- Setup Conditions: Abutilon theophrasti, post-emergence, 336 h, read-out: AVE. ABUTH
Recorded Endpoint: pest or weed control at 560 g/ha (%)
Answer format: numeric, % implied, no suffix.

{"Molecule": "O=C(COc1ccc(Cl)cc1Cl)OCOC(=O)c1ccccc1 [Compound E7]", "System Name": "Abutilon theophrasti (ABUTH), velvetleaf", "Units Symbol": "%", "pest or weed control at 560 g/ha": 89}
{"Molecule": "O=C(COc1ccc(Cl)cc1Cl)OCCOCCOCCOCCOC(=O)COc1ccc(Cl)cc1Cl [Compound B14]", "System Name": "Abutilon theophrasti (ABUTH), velvetleaf", "Units Symbol": "%", "pest or weed control at 560 g/ha": 87.5}
{"Molecule": "O=C(COc1ccc(Cl)cc1Cl)OCCCOC(=O)COc1ccc(Cl)cc1Cl [Compound B10]", "System Name": "Abutilon theophrasti (ABUTH), velvetleaf", "Units Symbol": "%", "pest or weed control at 560 g/ha": 32.5}

Let's switch to this molecule now.
Dear colleague, I am looking for the recorded pest or weed control at 560 g/ha of the following molecule: O=C(COc1ccc(Cl)cc1Cl)OCCOC(=O)COc1ccc(Cl)cc1Cl [Compound B9] 70
